tested on: RXF 393 renal; test: NCI tumour cell line growth inhibition, 48 h
MEASURED PROPERTY: GI50

C/C(=N\Nc1cc(C)c2cc(C)ccc2n1)c1ccccn1	0.113 µM
O=C1NC(O)C(c2c[nH]c3ccccc23)=C1c1c[nH]c2ccccc12 (stereo unspecified)	> 25 µM
CCCc1cc2c(=O)c(C(=O)OC)c[nH]c2cc1N(CC)CC	31.4 µM

Give the measured GI50 of `Ic1ccccc1-c1ccccc1` .
89.1 µM

# get_value(readout='GI50', item= `O=C(CNc1ccc2c(c1)C(=O)c1ccccc1C2=O)Nc1ccc2c(c1)C(=O)c1ccccc1C2=O` )
0.687 µM

I have this compound here, `Cn1c(/C=C(\C#N)c2ccccc2)nc2c(N3CCOCC3)nc(Cl)nc21` , and I need its recorded GI50.
0.89 µM

// lookup GI50 for `O=C1C(=O)c2ccccc2C(O)=C1CC=C(Br)Br`
14.3 µM

GI50 for `NC(N)=N/N=C\c1cccc(OCc2ccccc2)c1` ?
2.54 µM

What value of measured GI50 is listed for `O=C1C(Cl)=C(Nc2cccc(Cl)c2)C(=O)N1Cc1ccccc1Cl` ?
1.26 µM

Reported GI50 for `CN(C)c1ccc([O][Bi]([Cl])[Cl])cc1` : what is it?
82.2 µM

Requested read-out: GI50. Entry: `Cc1ccc(-n2c3c(c4c(CN(C)C)c(O)ccc42)CCc2ccccc2C3=O)cc1`
13.6 µM
